Test system: CCRIS mutagenicity, Ames/micronucleus/aberration tests
Test: CCRIS mutagenicity studies
Conditions: Test System: AMES SALMONELLA TYPHIMURIUM; Strain/Indicator: TA98; Method: PREINCUBATION
Text: The CCRIS database contains chemical records with carcinogenicity, mutagenicity, tumor promotion, and tumor inhibition test results. It was developed by the National Cancer Institute (NCI). Data are derived from studies cited in primary journals, current awareness tools, NCI reports, and other sources. Test results have been reviewed by experts in carcinogenesis and mutagenesis. CCRIS provides historical information from the years 1985 - 2011. It is no longer updated. […]
The source made the active and inactive calls. The rule behind the calls is not given here.
recorded metric: mutagenic call

- C[C@H](CCC(=O)O)[C@H]1CC[C@H]2[C@@H]3CC[C@@H]4C[C@H](O)CC[C@]4(C)[C@H]3CC[C@]12C: inactive; negative
- C[C@H](CCC(=O)O)[C@H]1CC[C@H]2[C@@H]3[C@H](O)C[C@@H]4C[C@H](O)CC[C@]4(C)[C@H]3C[C@H](O)[C@]12C: inactive; negative
- C/C(O)=C(\N=O)C(=O)N(c1ccccc1)N(C)N=O: active; positive
- Nc1ccc(N=Nc2cccc(N)c2N)cc1: active; positive

====

Tested on: CCRIS mutagenicity, Ames/micronucleus/aberration tests
Experiment: CCRIS mutagenicity studies
Settings: Test System: AMES SALMONELLA TYPHIMURIUM; Strain/Indicator: TA98; Metabolic Activation: HAMSTER, LIVER, S-9, AROCLOR 1254; Method: STANDARD PLATE
Active and inactive are the calls of the source. How the calls were made is not given here.
Outcome field: choose from active, inactive

Please review the following examples before continuing.
• c1ccc(NNc2ccccc2)cc1 = inactive
• NC(=O)/N=N/C(N)=O = inactive

GET /call?item= CCCCB(CCCC)CCCC returns the recorded outcome of this test.
active

Recorded test call requested for CCCCON=O
inactive

Field: outcome | Entry: O=c1[nH][nH]c2ccccc12
inactive

====

Tested on: CCRIS mutagenicity, Ames/micronucleus/aberration tests
Experiment: CCRIS mutagenicity studies
Details: Test System: AMES SALMONELLA TYPHIMURIUM; Strain/Indicator: TA2638; Metabolic Activation: NONE; Method: STANDARD PLATE
Activity calls are given as the source filed them. The rule behind the calls is not given here.
// allowed return values: active, inactive

Take a look at these entries with their results.
- C[n+]1ccc(-c2cc[n+](C)cc2)cc1: inactive
- CNCC(O)c1ccc(O)c(O)c1 (configuration not stated): inactive
- CCn1cc(C(=O)O)c(=O)c2cc3c(cc21)OCO3: active
- O=c1[nH]cc(F)c(=O)[nH]1: inactive
- CC(C)(C)OO: active
- COP(=O)(OC)OC: active

Attention now shifts to the item below.
Which outcome was assigned to NN in this test?
inactive

====

Test system: CCRIS mutagenicity, Ames/micronucleus/aberration tests
Experiment: CCRIS mutagenicity studies
Conditions: Test System: AMES SALMONELLA TYPHIMURIUM; Strain/Indicator: TA1538; Metabolic Activation: NONE; Method: STANDARD PLATE
Active and inactive are the calls of the source. How the calls were made is not given here.
Answer with one of the outcomes active, inactive

Which result was noted for this compound in the test: CC(C)N=C=NC(C)C
inactive

Give the logged outcome of this assay for the following compound: CC(=O)OC(C)=O
inactive

Query: recorded result category for O=c1[nH][nH]c2ccccc12 in this test
inactive

# lookup: test call for CC(Cc1ccc(O)c(O)c1)C(C)Cc1ccc(O)c(O)c1 (centres undefined)
inactive

Could you please tell me the result logged for CC(C)(C)NCC(O)c1cc(Cl)c(N)c(C(F)(F)F)c1 (centres undefined) in this assay?
inactive
